tested-on: Signal peptidase I (Escherichia coli K-12)
protocol: Inhibition of full length Escherichia coli His6-tagged LepB expressed in Escherichia coli C43(DE3) assessed as residual activity at 10 uM using dabcyl-VEVGGTATAGAFSRPGLE-(EDANS) as substrate preincubated for 10 mins followed by substrate addition measured for 2 hrs by FRET assay relative to control
Quick reference: Activity of the listed items.
Use % as the unit, but write only the number.

Past entries and their recorded results:
# molecule, tested-on, observation-type, measured-number
records = [
    ("CCCCCCCCCC(=O)N1CCC[C@H]1C(=O)N[C@H](C(=O)N[C@@H](C)C(=O)N[C@@H](CC(N)=O)C(=O)N[C@@H](C)B1O[C@@H]2C[C@@H]3C[C@@H](C3(C)C)[C@]2(C)O1)[C@H](C)O", "Signal peptidase I (Escherichia coli K-12)", "Activity", 0.084),
    ("CCCCCCc1ccc(-c2ccc(C(=O)N3CC(CN)C[C@H]3C(=O)N[C@H](C(=O)N[C@@H](C)C(=O)N[C@@H](CC(N)=O)C(=O)N[C@@H](C)B(O)O)[C@H](C)O)cc2)cc1 (stereo not given in full)", "Signal peptidase I (Escherichia coli K-12)", "Activity", 24.6),
    ("CCCCCCc1ccc(-c2ccc(C(=O)N3CCC[C@H]3C(=O)N[C@H](C(=O)N[C@@H](C)C(=O)N[C@@H](CC(N)=O)C(=O)N[C@@H](C)B(O)O)[C@H](C)O)cc2)cc1", "Signal peptidase I (Escherichia coli K-12)", "Activity", 7.23),
    ("CCCCc1ccc(-c2ccc(C(=O)N[C@@H](CCN)C(=O)N[C@H](C(=O)N[C@@H](C)C(=O)N[C@@H](CCCCN)C(=O)N[C@@H](C)B3O[C@@H]4C[C@@H]5C[C@@H](C5(C)C)[C@]4(C)O3)[C@H](C)O)cc2)cc1", "Signal peptidase I (Escherichia coli K-12)", "Activity", -0.117),
]

Now look at this one.
// CCCCCCc1ccc(-c2ccc(C(=O)N3CC(CN)C[C@H]3C(=O)N[C@H](C(=O)N[C@@H](C)C(=O)N[C@@H](CC(N)=O)C(=O)N[C@@H](C)B3O[C@@H]4C[C@@H]5C[C@@H](C5(C)C)[C@]4(C)O3)[C@H](C)O)cc2)cc1 (stereo not given in full) : Activity value = 3.93
